This collection of values is drawn from patent US20240182536A1.

Target: T1, IL-18 receptors on HEK-Blue IL-18 reporter cells (UniProt Q13478 19-541; O95256 20-599, limits assumed); further: unit not given here
T1 sequence (looked up) 1: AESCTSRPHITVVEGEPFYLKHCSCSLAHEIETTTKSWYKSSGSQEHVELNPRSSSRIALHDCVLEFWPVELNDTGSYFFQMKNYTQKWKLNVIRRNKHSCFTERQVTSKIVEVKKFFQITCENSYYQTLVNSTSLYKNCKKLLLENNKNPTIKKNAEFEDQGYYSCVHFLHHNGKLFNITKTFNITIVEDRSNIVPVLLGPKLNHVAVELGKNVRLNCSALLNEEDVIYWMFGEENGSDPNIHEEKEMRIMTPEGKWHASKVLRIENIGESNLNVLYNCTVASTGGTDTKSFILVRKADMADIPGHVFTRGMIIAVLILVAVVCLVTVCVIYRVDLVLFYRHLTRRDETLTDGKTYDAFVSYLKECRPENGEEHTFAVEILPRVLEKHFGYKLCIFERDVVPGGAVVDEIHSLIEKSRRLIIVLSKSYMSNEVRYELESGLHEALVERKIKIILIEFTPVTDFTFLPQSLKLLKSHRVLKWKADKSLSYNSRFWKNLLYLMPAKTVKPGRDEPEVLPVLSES
T1 sequence (looked up) 2: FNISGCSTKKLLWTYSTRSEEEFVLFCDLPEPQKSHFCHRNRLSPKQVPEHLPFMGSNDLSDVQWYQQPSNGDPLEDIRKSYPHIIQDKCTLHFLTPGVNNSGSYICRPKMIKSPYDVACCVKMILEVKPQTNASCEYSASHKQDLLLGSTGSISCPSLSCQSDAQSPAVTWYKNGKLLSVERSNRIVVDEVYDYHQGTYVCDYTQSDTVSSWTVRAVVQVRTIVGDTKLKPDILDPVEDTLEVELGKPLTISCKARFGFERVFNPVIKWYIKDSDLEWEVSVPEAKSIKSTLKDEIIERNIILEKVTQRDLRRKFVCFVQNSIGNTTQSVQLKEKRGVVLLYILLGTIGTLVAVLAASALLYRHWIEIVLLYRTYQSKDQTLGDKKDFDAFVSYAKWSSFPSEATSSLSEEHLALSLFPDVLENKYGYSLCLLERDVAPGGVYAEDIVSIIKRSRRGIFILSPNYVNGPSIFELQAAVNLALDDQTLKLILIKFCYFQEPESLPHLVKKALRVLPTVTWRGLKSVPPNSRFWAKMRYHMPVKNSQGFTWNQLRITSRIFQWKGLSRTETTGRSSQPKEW
Experiment: cell-based or functional assay
Parameter Measured: HEK-Blue activity, No BP, DF-100,000

>>> result("IL-18 variant K53H, S55M, T63S (ligand) YFGKLESKLSVIRNLNDQVLFIDQGNRPLFEDMTDSDMRDNAPRTIFIISMYHDMQPRGMAVSISVKSEKISTLSSENKIISFKEMNPPDNIKDTKSDIIFFQRSVPGHDNKMQFESSSYEGYFLASEKERDLFKLILKKEDELGDRSIMFTVQNED")
0.1

Okay, next one:
input: # get_value(readout='HEK-Blue activity, No BP, DF-100,000', item= IL-18 variant T34E, S36P, D40A, N41G, K53T, S55R (ligand) YFGKLESKLSVIRNLNDQVLFIDQGNRPLFEDMEDPDMRAGAPRTIFIISMYTDRQPRGMAVTISVKSEKISTLSSENKIISFKEMNPPDNIKDTKSDIIFFQRSVPGHDNKMQFESSSYEGYFLASEKERDLFKLILKKEDELGDRSIMFTVQNED )
output: 0.1
